- Study Target: human GPR4 (Homo sapiens)
- Sequence (P46093 whole entry): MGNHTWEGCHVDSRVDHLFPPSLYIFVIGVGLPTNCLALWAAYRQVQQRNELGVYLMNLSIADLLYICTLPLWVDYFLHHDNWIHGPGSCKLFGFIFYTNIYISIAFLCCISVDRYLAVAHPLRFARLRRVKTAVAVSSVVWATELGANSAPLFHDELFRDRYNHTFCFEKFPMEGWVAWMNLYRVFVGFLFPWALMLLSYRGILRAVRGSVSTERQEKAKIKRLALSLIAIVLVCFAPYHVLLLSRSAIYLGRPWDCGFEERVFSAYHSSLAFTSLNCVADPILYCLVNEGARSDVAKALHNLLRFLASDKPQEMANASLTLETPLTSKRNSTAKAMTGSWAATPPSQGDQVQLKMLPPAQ
- Test Name: Cell-based assay for human GPR4 activity (pH-induced cAMP formation, HTRF)
- Particulars: HeLa cells stably expressing human GPR4, pH-induced cAMP formation
Structures can show the parent of a compound that is named as a salt.
Assay Metric: IC50 (nM)

1. CCc1nc2c(C)cc(C)nc2n1Cc1ccc(/C=C/CN2CCN(C(C)C)C(CC)C2)cc1 (stereo not shown) [Example 72, dihydrochloride] | 452
2. CCCCCN1CCN(CCCc2ccc(Cn3c(CC)nc4c(C)cc(C)nc43)cc2)CC1 | 662
3. CCCN1CCN(C/C=C/c2ccc(Cn3c(CC)nc4c(C)cc(C)nc43)cc2)CC1 | 46
4. CCc1nc2c(C)cc(C)nc2n1Cc1ccc(CCCN2CCN(C(C)CC)CC2)cc1 (stereo not shown) | 479

The reported numbers originate from patent US20090291942A1.
